target: Plasmodium falciparum protein kinase 6 (PK6, PF3D7_1337100) (UniProt Q8IDW1); test: PfPK6 kinase inhibitors, biochemical, TCAMS library (AID 1159586); conditions: recombinant PfPK6, Kinase-Glo ATP depletion luminescence
Potency and affinity values are given separately. Calls of active or inactive are those of the source. The rule behind the calls is not given here.
reported.property: outcome

Here is how some compounds turned out for outcome.
Cc1cccc2sc(N(CCCn3ccnc3)C(=O)C=Cc3cccs3)nc12 :: inactive
CC(C)(C)OC(=O)NCc1ccc(Nc2nnc(-c3ccc(OCC(=O)NCc4cc(C(F)(F)F)cc(C(F)(F)F)c4)c([N+](=O)[O-])c3)o2)cc1 :: inactive
CCCC(CNCc1ccccc1)CNc1cc(=O)c2ccccc2[nH]1 (stereo not given) :: inactive
C=CCOc1ccccc1CNCC(O)c1cc(Br)cs1 (stereo not given) :: inactive
COc1cccc(OC)c1C(=O)Nc1cccc(-c2nn3ccccc3c2-c2ccnc(Nc3cccc(F)c3)n2)c1 :: inactive
COc1ccc(F)cc1-c1cccc(CNC2CCN(CC3Cn4c(=O)ccc5ccc(F)c3c54)CC2)c1 (stereo not given) :: inactive

What value of outcome has been recorded for this entry: Cc1sc(CNCCCNc2cc(=O)c3ccccc3[nH]2)cc1Br
inactive

What value of outcome has been recorded for this entry: COc1cc(CS(C)(=O)=O)ccc1Nc1nccc(-c2c(-c3cccc(NC(=O)c4c(F)cccc4F)c3)nn3ccccc23)n1
inactive

What value of outcome has been recorded for this entry: NC(=O)c1ccc(NC(=O)CN(Cc2ccc(Cl)cc2)S(=O)(=O)c2ccccc2)cc1
inactive

What value of outcome has been recorded for this entry: CN(C)c1ccc(Br)c(Br)c1
inactive

* * *

molecular target: L-lactate dehydrogenase (Plasmodium falciparum (isolate CDC / Honduras)); assay: PfLDH activity inhibition – cell lysate, 3D7 strain, counter-screen for P. falciparum growth inhibition project (AID 2304);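 note: 0% = vehicle and 100% = reference inhibitor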; conditions: P. falciparum 3D7 crude extract, LDH APAD/NBT absorbance; at 2 µM; stronger effect = higher value
Active and inactive are the calls of the source. How the calls were made is not given here.
reported.property: inhibition

Here is how some compounds turned out for inhibition.
COc1cc(Cl)c(C)cc1N(Cc1ccccc1-c1ccccc1)S(=O)(=O)c1ccc(C(F)(F)F)cc1 :: -2% (inactive)
CC1CN(c2ccc(NC(=O)c3cccs3)cc2)CCN1Cc1cccc(F)c1 (stereo not given) :: 0% (inactive)
Cc1ccc(C(=O)Nc2cccc(CN3CCCN(Cc4ccc(O)cc4)CC3)c2)cc1 :: -3% (inactive)
O=C(O)CNCC(O)c1ccccc1 (stereo not given) :: -5% (inactive)

Please state recorded inhibition (tested on L-lactate dehydrogenase (Plasmodium falciparum (isolate CDC / Honduras))) of COc1cccc(CN2CCN(C(c3ccccc3)c3ccccc3)CC2)c1O
2% (inactive)

* * *

test: inhibition of 3D7 malaria parasite growth – strain 3D7 (AID 2306);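 note: 0% = DMSO wells and 100% = chloroquine plus artemisinin control wells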; conditions: P. falciparum 3D7 erythrocytic growth, LDH absorbance, 72 h; at 2 µM; stronger effect = higher value
reported.property: growth inhibition (%)
Kindly provide the numeric value in % only, without the unit symbol.

Here is how some compounds turned out for growth inhibition.
CN1CCC[C@H]1COc1ccc(CN2CC[C@H](NC(=O)c3ccc(Cl)c(Cl)c3)C2)cc1Cl :: 97
COc1cc2nccc(Nc3cc(C)cc(O)c3)c2cc1OC :: 97
CN(C(=O)c1snnc1-c1ccccc1)C1CCN(CCCCCNC(=O)/C=C/c2ccc(Cl)c(Cl)c2)CC1 :: 96
O=S(=O)(c1ccccc1C(F)(F)F)C1C[C@H]2CC[C@@H](C1)N2S(=O)(=O)c1ccc(Cl)c(C(F)(F)F)c1 (stereo not given in full) :: 97

What value of growth inhibition has been recorded for this entry: Cc1ccc(C(NC(=O)c2ccccc2)c2ccc3cccnc3c2O)cc1 (stereo not given)
92

What value of growth inhibition has been recorded for this entry: O=C(/C=C/c1ccc(Cl)cc1)NCCCCCN1CCC(C(=O)Nc2ccc(Cl)c(Cl)c2)CC1
100

What value of growth inhibition has been recorded for this entry: Cc1n[nH]c(C)c1C1CCN(CC2CCC(NC(=O)/C=C/c3ccc(Cl)c(Cl)c3)CC2)CC1 (stereo not given)
101
